- Assay Target: Recombinant mouse PD-L1 (Mus musculus)
- Construct: Fc (Fc chimera); purchased R&D Systems 1019-B7-100
- Protocol Details: Rescue of mouse splenocyte proliferation in the presence of recombinant PD-L1 (CFSE proliferation assay)
- Format: cell-based
- Conditions Used: 100 nM compound; anti-CD3/CD28 stimulated CFSE-labelled mouse splenocytes + PD-L1, 72 h; normalised to stimulated splenocyte proliferation as 100%; read-out: Percent rescue of proliferation (@100 nM compound concentration)
Metric Name: activation at 0.1 µM (%)
Give bare numbers, in %.

> print(dat)
                                   compound  data.value
1  CC(O)[C@@H]1NC(=O)N[C@@H](Cc2ccccc2)C(=O)NNC(=O)[C@H](CO)NC(=O)COCCOCCNC1=O (stereo partly shown)          66
2  CC(O)[C@@H]1NC(=O)N[C@@H](Cc2ccccc2)C(=O)NNC(=O)[C@H](CCCCN)NC(=O)COCCOCCNC1=O (stereo partly shown)          30
3  CC(O)[C@@H]1NC(=O)N[C@@H](CCCCN)C(=O)NNC(=O)[C@H](CO)NC(=O)COCCOCCNC1=O (stereo partly shown)          40

// for each compound in input: emit activation at 0.1 µM
1. NCCCC[C@@H]1NC(=O)COCCOCCNC(=O)[C@H](CCCCN)NC(=O)N[C@@H](CCCCN)C(=O)NNC1=O
2. CCC(C)[C@@H]1NC(=O)N[C@@H](CCC(=O)O)C(=O)NCCOCCOCC(=O)N[C@@H](CCC(N)=O)C(=O)NNC1=O (stereo partly shown)
3. CC(O)[C@@H]1NC(=O)N[C@@H](CC(N)=O)C(=O)NNC(=O)[C@H](CCCCN)NC(=O)COCCOCCNC1=O (stereo partly shown)
4. O=C1COCCOCCNC(=O)[C@H](CO)NC(=O)N[C@@H](CO)C(=O)NNC(=O)[C@H](CO)N1

-- reply
[24, 40, 57, 17]

---

- Assay Target: Recombinant mouse PD-L1 (Mus musculus, UniProt Q9EP73)
- Construct: Fc (Fc chimera); purchased R&D Systems 1019-B7-100
- Sequence (Q9EP73 with tags, fused parts or gaps limits assumed): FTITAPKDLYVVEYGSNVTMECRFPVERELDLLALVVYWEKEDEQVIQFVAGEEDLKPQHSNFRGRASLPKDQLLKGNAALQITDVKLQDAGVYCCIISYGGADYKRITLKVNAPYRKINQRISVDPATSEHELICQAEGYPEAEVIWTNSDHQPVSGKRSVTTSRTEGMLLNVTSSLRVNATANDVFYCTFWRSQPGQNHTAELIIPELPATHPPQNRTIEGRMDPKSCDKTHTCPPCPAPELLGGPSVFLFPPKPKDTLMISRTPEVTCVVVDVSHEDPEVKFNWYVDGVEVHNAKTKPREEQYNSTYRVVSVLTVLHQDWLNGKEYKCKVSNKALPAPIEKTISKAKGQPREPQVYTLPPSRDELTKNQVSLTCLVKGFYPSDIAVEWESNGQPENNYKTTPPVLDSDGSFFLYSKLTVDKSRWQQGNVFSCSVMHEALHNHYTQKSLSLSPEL
- Protocol Details: Rescue of mouse splenocyte proliferation in the presence of recombinant PD-L1 (CFSE proliferation assay)
- Format: cell-based
- Conditions Used: 100 nM compound; anti-CD3/CD28 stimulated CFSE-labelled mouse splenocytes + PD-L1, 72 h; normalised to stimulated splenocyte proliferation as 100%; read-out: Percent rescue of proliferation (@100 nM compound concentration)
Answer each item with its documented activation at 0.1 µM.
Answers are plain numbers, in %.

> print(dat)
                                   molecule           metric.name  data.value
1  CC(O)[C@@H]1NC(=O)N[C@@H](CC(N)=O)C(=O)NNC(=O)[C@H](CC(=O)O)NC(=O)COCCOCCNC1=O (stereo partly shown)  activation at 0.1 µM          46

// for each molecule in input: emit activation at 0.1 µM
1. CC(C)C[C@@H]1NC(=O)N[C@@H](CC(N)=O)C(=O)NNC(=O)[C@H](CO)NC(=O)COCCOCCNC1=O
2. O=C(O)C[C@@H]1NC(=O)COCCOCCNC(=O)[C@H](CC(=O)O)NC(=O)N[C@@H](CC(=O)O)C(=O)NNC1=O
3. O=C1COCCOCCNC(=O)[C@H](Cc2ccc(O)cc2)NC(=O)N2CCCC2C(=O)NNC(=O)[C@H](Cc2ccc(O)cc2)N1 (stereo partly shown)
4. CCC(C)[C@@H]1NC(=O)N[C@@H](CCC(N)=O)C(=O)NCCOCCOCC(=O)N[C@@H](CCC(=O)O)C(=O)NNC1=O (stereo partly shown)
5. CCC(C)[C@@H]1NC(=O)N[C@@H](C(C)O)C(=O)NCCOCCOCC(=O)N[C@@H](CO)C(=O)NNC1=O (stereo partly shown)
6. CC(O)[C@@H]1NC(=O)COCCOCCNC(=O)[C@H](C(C)O)NC(=O)N[C@@H](C(C)O)C(=O)NNC1=O (stereo partly shown)

-- reply
53
53
76
38
23
91
